- Study system: full-length human CRM1(E571K) (human, UniProt O14980 1-1071, E571K)
- Sequence (O14980 whole entry E571K): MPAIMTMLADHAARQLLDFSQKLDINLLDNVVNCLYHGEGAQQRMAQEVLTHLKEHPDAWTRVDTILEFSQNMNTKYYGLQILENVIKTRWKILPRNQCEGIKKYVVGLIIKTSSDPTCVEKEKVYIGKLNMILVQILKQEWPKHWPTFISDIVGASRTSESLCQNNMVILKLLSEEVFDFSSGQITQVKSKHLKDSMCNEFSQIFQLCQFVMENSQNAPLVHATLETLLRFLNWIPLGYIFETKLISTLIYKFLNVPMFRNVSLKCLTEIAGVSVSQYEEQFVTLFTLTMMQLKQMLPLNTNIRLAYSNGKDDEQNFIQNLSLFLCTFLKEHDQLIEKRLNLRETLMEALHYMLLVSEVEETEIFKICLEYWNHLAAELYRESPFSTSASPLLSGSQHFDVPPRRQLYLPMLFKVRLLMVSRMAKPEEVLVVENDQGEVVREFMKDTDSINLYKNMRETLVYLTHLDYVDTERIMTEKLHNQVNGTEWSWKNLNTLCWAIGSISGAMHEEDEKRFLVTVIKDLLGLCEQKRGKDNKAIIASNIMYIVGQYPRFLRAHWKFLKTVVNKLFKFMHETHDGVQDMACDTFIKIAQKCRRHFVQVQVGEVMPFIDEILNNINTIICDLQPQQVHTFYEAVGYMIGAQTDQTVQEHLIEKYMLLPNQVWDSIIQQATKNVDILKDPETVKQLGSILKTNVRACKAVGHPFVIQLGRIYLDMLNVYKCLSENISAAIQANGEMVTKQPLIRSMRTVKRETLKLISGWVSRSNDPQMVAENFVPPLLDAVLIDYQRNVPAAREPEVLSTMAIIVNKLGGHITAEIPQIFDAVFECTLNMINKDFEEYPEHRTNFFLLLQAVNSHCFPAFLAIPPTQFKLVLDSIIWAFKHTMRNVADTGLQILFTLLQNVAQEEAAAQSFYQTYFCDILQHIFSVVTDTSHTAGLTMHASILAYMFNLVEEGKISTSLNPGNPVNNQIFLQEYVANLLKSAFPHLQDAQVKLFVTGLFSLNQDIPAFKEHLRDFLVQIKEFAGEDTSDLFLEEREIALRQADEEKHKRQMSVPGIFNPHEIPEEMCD
- Method description: differential photobleaching
pKd: −log10 of the molar value.
List of pKd values.
Property measured: pKd

- Binder: "RTFDMHSLESSIDIMR [MBP-Cpeb4^NES]"
  Meas value: 5.72
- Binder: "LQLPPLERLTLDC [MBP-HIV Rev^NES]"
  Meas value: 5.39
- Binder: "NFEILMKLKESLELMELVP [MBP-P73^NES]"
  Meas value: 5.82
- Binder: "PLPVLGLGGLRISS [MBP-Dusp6^NES]"
  Meas value: 4.85
